Quick reference: %Inh of the listed items.
tested on: MAP3K15; conditions: concentration: 1 μM, replicates: in singlicate; n = 1
Give the value, in units of %, as a plain number.

Worked set:
>  <compound>
Cc1nn2c(=O)cc(N3CCOCC3)nc2n1Cc1cccc(Cl)c1Cl [GSK2342769]

>  <display-unit>
%

>  <%Inh>
9

$$$$
>  <compound>
Cc1cccc(-c2nc(Nc3ccc4c(cnn4C)c3)c3ccccc3n2)n1 [GW876731]

>  <display-unit>
%

>  <%Inh>
0

$$$$
>  <compound>
COc1ccc(-c2coc3ccc(-c4nnc(SCc5cccc(C#N)c5)o4)cc23)cc1

>  <display-unit>
%

>  <%Inh>
0

$$$$
>  <compound>
Cc1nc(N(C)[C@H]2CN(C(=O)CC#N)CC[C@H]2C)c2cc[nH]c2n1

>  <display-unit>
%

>  <%Inh>
0

$$$$
>  <compound>
COc1cc2nccc(Nc3cccc(Oc4ccccc4)c3)c2cc1OC.Cl [GW284543]

>  <display-unit>
%

>  <%Inh>
0

$$$$

Given the compound `CC(C)(C)c1ccc(C(=O)Nc2cn3cc(-c4ccccc4)ccc3n2)cc1` , what is its reported %Inh?
22

Given the compound O=C(Nc1ccc2c(c1)OCO2)NC1CCN(c2ccnc(NCc3ccc(F)cc3)n2)CC1 [GSK1379859] , what is its reported %Inh?
0

Given the compound CCn1c(-c2nonc2N)nc2ccccc21 [SB-693162/GW549034] , what is its reported %Inh?
54

Given the compound COc1cc2ncn(-c3cc(OCc4ccncc4Br)c(C(N)=O)s3)c2cc1OC [GW854278] , what is its reported %Inh?
0

Given the compound Nc1n[nH]c2ncc(-c3ccccc3)cc12 [SB-517081] , what is its reported %Inh?
0

====

tested on: CSF1R-autoinhibited; details: concentration: 1 μM, replicates: in singlicate; n = 1
endpoint: %Inh (%)
Give the value, in units of %, as a plain number.

Given the molecule Cc1nnc(-c2ccc3ncn(-c4ccc(S(C)=O)cc4)c3c2)o1 (centres unmarked) , what is its reported %Inh?
7

Given the molecule `COc1cc2nccc(Nc3cccc(Oc4ccccc4)c3)c2cc1OC.Cl` , what is its reported %Inh?
32

Given the molecule `COc1cc2ncn(-c3cc(OCc4ccc(S(C)(=O)=O)cc4)c(C(N)=O)s3)c2cc1OC` , what is its reported %Inh?
5

Given the molecule `Cc1ccc(-c2ccc3c(ccc4sc5c(c43)NC[C@@H](C)N=C5N(C)C)n2)cn1` , what is its reported %Inh?
14

====

system: EPHB6; conditions: concentration: 1 μM, replicates: in singlicate; n = 1
Rule: %Inh under 20% gives n, otherwise y.

>  <smiles-entry>
Cc1ccc(Oc2ccc(Nc3ncnc4cc[nH]c34)cc2C)cn1

>  <group-label>
y

$$$$
>  <smiles-entry>
O=C(NCCNc1ccnc(Nc2ccc(F)cc2)n1)Nc1ccc2c(c1)OCO2

>  <group-label>
y

$$$$
>  <smiles-entry>
COc1cc(Nc2ccnc3ccc(C(F)(F)F)cc23)cc(OC)c1OC

>  <group-label>
y

$$$$
>  <smiles-entry>
CCC(=O)c1c(-c2ccccc2)c2cc(Cl)ccc2c(=O)n1Cc1cc(S(C)(=O)=O)n(CCC(C)(C)O)n1

>  <group-label>
y

$$$$
>  <smiles-entry>
Cc1cc(Nc2nc(-c3cccc(C)n3)nc3ccccc23)ccn1

>  <group-label>
n

$$$$

Alright, here's another compound for you.
Kindly determine if %Inh recorded for `CC(C)(C)c1ccc(C(=O)Nc2cn3cc(-c4ccccc4)ccc3n2)cc1` is above or exactly 20%.
n

====

system: CDK8; details: concentration: 1 μM, replicates: in singlicate; n = 1
endpoint: %Inh

Worked set:
>  <smiles-entry>
Cc1nc(N(C)[C@H]2CN(C(=O)CC#N)CC[C@H]2C)c2cc[nH]c2n1

>  <study-system>
CDK8

>  <%Inh>
0%

$$$$
>  <smiles-entry>
Cc1cccc(-c2cc(-c3c[nH]nc3-c3ccccn3)ccn2)c1

>  <study-system>
CDK8

>  <%Inh>
4%

$$$$
>  <smiles-entry>
C[C@@H]1CC[C@H](C(=O)NC2CCCCC2)CN1c1cc(-c2ccc3c(N)n[nH]c3c2)nc(N)n1

>  <study-system>
CDK8

>  <%Inh>
37%

$$$$
>  <smiles-entry>
CCS(=O)(=O)c1ccc(OC)c(Nc2ncc(-c3ccc(F)cc3)o2)c1.Cl

>  <study-system>
CDK8

>  <%Inh>
19%

$$$$
>  <smiles-entry>
COc1cccc(C2=C(Nc3cccc(C(=O)O)c3)C(=O)NC2=O)c1

>  <study-system>
CDK8

>  <%Inh>
4%

$$$$
>  <smiles-entry>
Cc1ccc(Oc2ccc(Nc3ncnc4cc[nH]c34)cc2C)cn1

>  <study-system>
CDK8

>  <%Inh>
0%

$$$$

Under CDK8: %Inh value of `O=c1cc(N2CCOCC2)nc2n(Cc3ccc(F)c(Cl)c3)ccn12` ?
10%

Under CDK8: %Inh value of `Nc1ncnc2c1ncn2-c1ccc(Cl)cc1` ?
33%

Under CDK8: %Inh value of `COc1cc(OC)cc(-c2cc3cnc(N)nc3nc2NC(=O)NC(C)(C)C)c1` ?
0%

====

system: TXK;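 note: kd values determined as follow-up on hits from a single-replicate KINOMEscan panel screen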
pKd: −log10 of the molar value.
endpoint: pKd

>  <compound>
O=C(NCCNc1ccnc(Nc2ccc(F)cc2)n1)Nc1ccc2c(c1)OCO2 [GSK1379882]

>  <pKd>
< 5.00

$$$$

Under TXK: pKd value of CN(C)c1cc(-c2ccc3c(N)n[nH]c3c2)nc(N)n1 [GSK2219329] ?
< 5.00

====

Quick reference: %Inh of the listed items.
test system: EPHA8; settings: concentration: 1 μM, replicates: in singlicate; n = 1
Give the value, in units of %, as a plain number.

>  <molecule>
COc1cc(Nc2nccc(N3CCC(NC(=O)C4COc5ccccc5O4)C3)n2)cc(OC)c1OC (centres unmarked) [GSK1379761]

>  <study-system>
EPHA8

>  <display-unit>
%

>  <recorded-result>
5

$$$$
>  <molecule>
CCc1ccc(-c2ccc3c(c2)-c2nn(C)cc2S(=O)(=O)N3C)cc1

>  <study-system>
EPHA8

>  <display-unit>
%

>  <recorded-result>
0

$$$$
>  <molecule>
COc1cc(OC)cc(-c2cc3cnc(N)nc3nc2NC(=O)NC(C)(C)C)c1

>  <study-system>
EPHA8

>  <display-unit>
%

>  <recorded-result>
0

$$$$

Given the molecule Cc1cc(Nc2nc(-c3cccc(C)n3)nc3ccccc23)ccn1 [GW872411] , what is its reported %Inh?
0

Given the molecule Nc1ncnc2c1ncn2-c1cccc(F)c1 [SKF-97560] , what is its reported %Inh?
10

====

Quick reference: %Inh of the listed items.
system: ACVRL1; details: concentration: 1 μM, replicates: in singlicate; n = 1
Give the value, in units of %, as a plain number.

Worked set:
>  <smiles-entry>
CCc1nc(-c2cccc(C)c2)c(-c2ccncc2)s1

>  <display-unit>
%

>  <%Inh>
5

$$$$
>  <smiles-entry>
COc1cc2nccc(Nc3cccc(Oc4ccccc4)c3)c2cc1OC.Cl

>  <display-unit>
%

>  <%Inh>
0

$$$$
>  <smiles-entry>
COC(=O)c1c(-c2ccccc2)c2cc(Br)ccc2c(=O)n1Cc1ccc(S(C)(=O)=O)cc1

>  <display-unit>
%

>  <%Inh>
0

$$$$
>  <smiles-entry>
OCCCNc1nccc(-c2c(-c3cccc(C(F)(F)F)c3)nn3cc(C(F)(F)F)ccc23)n1

>  <display-unit>
%

>  <%Inh>
0

$$$$

Given the compound `Cn1c(=O)c(F)c(Nc2ccc(I)cc2F)c2c(=O)n(OC[C@H](O)CO)cnc21` , what is its reported %Inh?
1

====

tested on: SRC; details: concentration: 1 μM, replicates: in singlicate; n = 1
endpoint: %Inh (%)
Give the value, in units of %, as a plain number.

>  <compound>
CCc1nc(-c2cccc(C)c2)c(-c2ccncc2)s1

>  <recorded-result>
0

$$$$
>  <compound>
Cc1ccccc1COc1cc(-n2cnc3cc(Cl)ccc32)sc1C(N)=O

>  <recorded-result>
0

$$$$
>  <compound>
CCC(=O)c1c(-c2ccccc2)c2cc(Cl)ccc2c(=O)n1Cc1cc(S(C)(=O)=O)n(CCC(C)(C)O)n1

>  <recorded-result>
0

$$$$
>  <compound>
COC(=O)c1c(-c2ccccc2)c2cc(C)ccc2c(=O)n1Cc1ccccc1

>  <recorded-result>
0

$$$$

Given the compound `CCC(=O)c1c(-c2ccccc2)c2cc(Cl)ccc2c(=O)n1Cc1cc(C(=O)NC2CC2)n(C)n1` , what is its reported %Inh?
0

Given the compound `CCCNC(=O)Nc1ccc(Oc2ncnc3ccn(C)c23)cc1` , what is its reported %Inh?
0

Given the compound `Cl.NS(=O)(=O)c1cccc(Nc2cc(-c3ccc(F)cc3)n[nH]2)c1` , what is its reported %Inh?
1

Given the compound `COc1ccc(-c2cc3c(C)nc(N)nc3n([C@H]3CC[C@H](OCCO)CC3)c2=O)cn1` , what is its reported %Inh?
8

Given the compound `O=c1cc(N2CCOCC2)nc2n(Cc3ccc(F)c(Cl)c3)ccn12` , what is its reported %Inh?
0

Given the compound CCS(=O)c1ccc(-c2coc3ccc(-c4nnc(C)o4)cc23)cc1 (stereo not drawn) , what is its reported %Inh?
0

Given the compound `Nc1n[nH]c2nnc(-c3ccccc3)c(-c3ccccc3)c12` , what is its reported %Inh?
0

Every entry's value here was drawn from paper PMC5540273.
